// data source = PubChem BioAssay

target_or_test_system: Lethal factor (Bacillus anthracis)
protocol_notes: Lethal factor protease inhibitors, Bacillus anthracis, multiplex microsphere cleavage assay, validation set (AID 588461)
recorded_conditions: flow cytometry, at 10 µM, stronger effect = higher value
measured_quantity: inhibition (%)
Please give a number only; it is taken to be in %.

Hello, please tell me recorded inhibition for this one: Cc1cccc(N(C)C(=S)Oc2ccc3ccccc3c2)c1
-4.3

Identify the reported inhibition for the following entry. COC(=O)C1[C@H]2C(=O)N(Cc3cccs3)C[C@]23C=C[C@H]1O3 (some centres undefined)
-4

Tell me measured inhibition for COc1ccc(-c2[nH]ncc2CN(C)C(C)c2ccon2)c(OC)c1 (centres undefined) please.
0

Annotate the compound O=C(Nc1ccc(Cl)cn1)Nc1ccccc1Cl with its measured inhibition.
-4.9
